# Tested on: gastric acid secretion
# Test: Gastric acid secretion-inhibiting activity, pylorus ligation method (Shay)
# Type: in vivo
# Condition summary: Rattus norvegicus, 5 h, acidity reduced to 50% of control; injected into duodenum; pylorus ligated rats, five hours, five animals; read-out: ED50, Acidity (gastric acid secretion-inhibiting activity)
Measure name: log10 of ED50 (log10 of the value in mg/kg)

>  <Compound>
CCCC#CCC(C)C(O)C=CC1C(O)CC2Oc3c(CCC(=O)O)cccc3C21 (centres unmarked)

>  <Tested on>
gastric acid secretion

>  <Measure name>
log10 of ED50

>  <Reading>
-0.85

$$$$
>  <Compound>
CCC#CCC(C)(C)C(O)C=CC1C(O)CC2Oc3c(CCC(=O)O)cccc3C21 (centres unmarked)

>  <Tested on>
gastric acid secretion

>  <Measure name>
log10 of ED50

>  <Reading>
-1.06

$$$$
>  <Compound>
CCCCC#CCC(C)C(O)C=CC1C(O)CC2Oc3c(CCC(=O)O)cccc3C21 (centres unmarked)

>  <Tested on>
gastric acid secretion

>  <Measure name>
log10 of ED50

>  <Reading>
-0.13

$$$$
>  <Compound>
CCC#CCC(C)C(O)C=CC1C(O)CC2Oc3c(CCC(=O)O)cccc3C21 (centres unmarked)

>  <Tested on>
gastric acid secretion

>  <Measure name>
log10 of ED50

>  <Reading>
-1.64

$$$$
>  <Compound>
CC#CCC(C)(C)C(O)C=CC1C(O)CC2Oc3c(CCCO)cccc3C21 (centres unmarked)

>  <Tested on>
gastric acid secretion

>  <Measure name>
log10 of ED50

>  <Reading>
-0.57

$$$$
>  <Compound>
CC#CCC(C)(C)C(O)C=CC1C(O)CC2Oc3c(CCC(=O)O)cccc3C21 (centres unmarked)

>  <Tested on>
gastric acid secretion

>  <Measure name>
log10 of ED50

>  <Reading>
-0.64

$$$$

---

# Test system: gastric acid secretion
# Test: Gastric acid secretion-inhibiting activity, pylorus ligation method (Shay)
# Format: in vivo
# Condition summary: Rattus norvegicus, 5 h, gastric juice volume reduced to 50% of control; injected into duodenum; pylorus ligated rats, five hours, five animals; read-out: ED50, Gastric juice volume (gastric acid secretion-inhibiting activity)
Measure name: log10 of ED50 (log10 of the value in mg/kg)

>  <Compound>
CCCCCC#CCC(C)(C)C(O)C=CC1C(O)CC2Oc3c(CCC(=O)O)cccc3C21 (centres unmarked)

>  <log10 of ED50>
0.75

$$$$
>  <Compound>
CCC#CCC(C)C(O)C=CC1C(O)CC2Oc3c(CCC(=O)O)cccc3C21 (centres unmarked)

>  <log10 of ED50>
-1.74

$$$$
>  <Compound>
CCCC#CCC(C)C(O)C=CC1C(O)CC2Oc3c(CCC(=O)O)cccc3C21 (centres unmarked)

>  <log10 of ED50>
-0.92

$$$$
>  <Compound>
CCC#CCC(C)(C)C(O)C=CC1C(O)CC2Oc3c(CCC(=O)O)cccc3C21 (centres unmarked)

>  <log10 of ED50>
-0.68

$$$$
>  <Compound>
CCCCC#CCC(C)C(O)C=CC1C(O)CC2Oc3c(CCC(=O)O)cccc3C21 (centres unmarked)

>  <log10 of ED50>
-0.29

$$$$

---

# System: platelet aggregation
# Test: Platelet aggregation-inhibiting activity (ADP-induced, platelet-rich plasma)
# Format: cell-based, person
# Condition summary: Platelet, PRP; ADP 10 μM; compound added one minute before ADP
Recorded IC50, one value per entry.
Measure name: IC50 (ng/mL)

>  <Molecule>
CCCC#CCC(C)C(O)C=CC1C(O)CC2Oc3c(CCC(=O)O)cccc3C21 (stereo not shown) [Compound 46]

>  <Tested on>
platelet aggregation

>  <Measure name>
IC50

>  <Units>
ng/mL

>  <Reading>
0.96

$$$$
>  <Molecule>
CCC#CCC(C)(C)C(O)C=CC1C(O)CC2Oc3c(CCC(=O)O)cccc3C21 (stereo not shown) [Compound 57]

>  <Tested on>
platelet aggregation

>  <Measure name>
IC50

>  <Units>
ng/mL

>  <Reading>
3.2

$$$$
>  <Molecule>
CCCCCC#CCC(C)(C)C(O)C=CC1C(O)CC2Oc3c(CCC(=O)O)cccc3C21 (stereo not shown) [Compound 64]

>  <Tested on>
platelet aggregation

>  <Measure name>
IC50

>  <Units>
ng/mL

>  <Reading>
5.5

$$$$
>  <Molecule>
CC#CCC(C)(C)C(O)C=CC1C(O)CC2Oc3c(CCC(=O)O)cccc3C21 (stereo not shown) [Compound 54]

>  <Tested on>
platelet aggregation

>  <Measure name>
IC50

>  <Units>
ng/mL

>  <Reading>
7.3

$$$$
>  <Molecule>
CCC#CCC(C)C(O)C=CC1C(O)CC2Oc3c(CCC(=O)O)cccc3C21 (stereo not shown) [Compound 42]

>  <Tested on>
platelet aggregation

>  <Measure name>
IC50

>  <Units>
ng/mL

>  <Reading>
0.34

$$$$
>  <Molecule>
CCCCC#CCC(C)(C)C(O)C=CC1C(O)CC2Oc3c(CCC(=O)O)cccc3C21 (stereo not shown) [Compound 60]

>  <Tested on>
platelet aggregation

>  <Measure name>
IC50

>  <Units>
ng/mL

>  <Reading>
3

$$$$
>  <Molecule>
CCCCC#CCC(C)C(O)C=CC1C(O)CC2Oc3c(CCC(=O)O)cccc3C21 (stereo not shown) [Compound 50]

>  <Tested on>
platelet aggregation

>  <Measure name>
IC50

>  <Units>
ng/mL

>  <Reading>
0.63

$$$$

---

Recorded ED (25 mmHg), one value per entry.
# System: blood pressure in the carotid
# Test: Hypotensive activity
# Assay type: in vivo, Wistar male rats
# Condition summary: Rattus norvegicus, dose reducing blood pressure by 25 mmHg; injected via femoral artery; chloralose anesthesia; read-out: ED25 (hypotensive activity)
Measure name: ED (25 mmHg) (µg/kg)

>  <Compound>
CC#CCC(C)(C)C(O)C=CC1C(O)CC2Oc3c(CCCO)cccc3C21 (centres unmarked)

>  <Units>
µg/kg

>  <Bound type>
>

>  <Reading>
100

$$$$
>  <Compound>
CC#CCC(C)(C)C(O)C=CC1C(O)CC2Oc3c(CCC(=O)O)cccc3C21 (centres unmarked)

>  <Units>
µg/kg

>  <Bound type>
=

>  <Reading>
0.64

$$$$
>  <Compound>
CCCC#CCC(C)C(O)C=CC1C(O)CC2Oc3c(CCC(=O)O)cccc3C21 (centres unmarked)

>  <Units>
µg/kg

>  <Bound type>
=

>  <Reading>
0.22

$$$$
>  <Compound>
CCC#CCC(C)(C)C(O)C=CC1C(O)CC2Oc3c(CCC(=O)O)cccc3C21 (centres unmarked)

>  <Units>
µg/kg

>  <Bound type>
=

>  <Reading>
0.14

$$$$
>  <Compound>
CCCCCC#CCC(C)(C)C(O)C=CC1C(O)CC2Oc3c(CCC(=O)O)cccc3C21 (centres unmarked)

>  <Units>
µg/kg

>  <Bound type>
=

>  <Reading>
15.5

$$$$

---

Recorded ED50, one value per entry.
# Tested on: gastric acid secretion
# Test: Gastric acid secretion-inhibiting activity, pylorus ligation method (Shay)
# Assay type: in vivo
# Condition summary: Rattus norvegicus, 5 h, gastric juice volume reduced to 50% of control; injected into duodenum; pylorus ligated rats, five hours, five animals; read-out: ED50, Gastric juice volume (gastric acid secretion-inhibiting activity)

>  <Compound>
CC#CCC(C)(C)C(O)C=CC1C(O)CC2Oc3c(CCC(=O)O)cccc3C21 (stereo not drawn)

>  <Tested on>
gastric acid secretion

>  <ED50>
> 0.3 mg/kg

$$$$
>  <Compound>
CC#CCC(C)(C)C(O)C=CC1C(O)CC2Oc3c(CCCO)cccc3C21 (stereo not drawn)

>  <Tested on>
gastric acid secretion

>  <ED50>
> 3 mg/kg

$$$$
>  <Compound>
CCCCC#CCC(C)(C)C(O)C=CC1C(O)CC2Oc3c(CCC(=O)O)cccc3C21 (stereo not drawn)

>  <Tested on>
gastric acid secretion

>  <ED50>
> 3 mg/kg

$$$$
